Target: panel of 255 wild-type kinases (Homo sapiens, UniProt Q13464)
Sequence (Q13464 whole entry): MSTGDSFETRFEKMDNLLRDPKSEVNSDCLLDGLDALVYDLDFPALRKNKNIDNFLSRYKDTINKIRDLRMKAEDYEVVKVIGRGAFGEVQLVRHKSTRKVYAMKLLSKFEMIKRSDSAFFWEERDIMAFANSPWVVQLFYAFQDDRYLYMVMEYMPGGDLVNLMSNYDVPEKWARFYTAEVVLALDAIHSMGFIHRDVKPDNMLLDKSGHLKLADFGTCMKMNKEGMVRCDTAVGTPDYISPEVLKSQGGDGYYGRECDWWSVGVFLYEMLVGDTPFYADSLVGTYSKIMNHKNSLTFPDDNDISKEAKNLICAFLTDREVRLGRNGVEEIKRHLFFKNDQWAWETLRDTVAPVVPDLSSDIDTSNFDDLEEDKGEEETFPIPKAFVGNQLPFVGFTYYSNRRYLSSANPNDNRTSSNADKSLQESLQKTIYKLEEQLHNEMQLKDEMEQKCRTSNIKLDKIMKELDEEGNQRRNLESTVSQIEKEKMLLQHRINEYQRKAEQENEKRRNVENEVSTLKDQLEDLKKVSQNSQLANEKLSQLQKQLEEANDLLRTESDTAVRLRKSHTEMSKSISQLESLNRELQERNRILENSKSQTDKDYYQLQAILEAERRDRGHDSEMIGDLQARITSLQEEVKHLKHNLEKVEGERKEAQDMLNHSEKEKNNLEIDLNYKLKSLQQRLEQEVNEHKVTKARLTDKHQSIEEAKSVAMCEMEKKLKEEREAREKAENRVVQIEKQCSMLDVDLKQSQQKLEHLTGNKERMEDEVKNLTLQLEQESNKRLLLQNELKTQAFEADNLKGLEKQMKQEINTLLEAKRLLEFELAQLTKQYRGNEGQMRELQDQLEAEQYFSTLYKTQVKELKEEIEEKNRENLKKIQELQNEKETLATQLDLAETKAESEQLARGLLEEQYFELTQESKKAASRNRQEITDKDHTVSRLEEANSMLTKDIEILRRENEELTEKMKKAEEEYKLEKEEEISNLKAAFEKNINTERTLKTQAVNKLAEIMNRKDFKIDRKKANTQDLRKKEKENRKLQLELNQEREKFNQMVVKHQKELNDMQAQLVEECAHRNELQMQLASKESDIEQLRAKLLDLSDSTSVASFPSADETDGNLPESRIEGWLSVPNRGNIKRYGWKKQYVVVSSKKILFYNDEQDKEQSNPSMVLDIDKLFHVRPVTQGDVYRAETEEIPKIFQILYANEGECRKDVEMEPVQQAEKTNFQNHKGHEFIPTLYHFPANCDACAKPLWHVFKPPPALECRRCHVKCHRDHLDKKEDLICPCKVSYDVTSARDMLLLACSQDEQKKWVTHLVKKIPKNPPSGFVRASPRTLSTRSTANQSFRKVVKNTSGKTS
Test: Kinase panel profiling at 1 µmol/L (MSA or IMAP), percentage inhibition
Assay type: biochemical
Details: kinase ROCK1; 1 µmol/L single concentration; read-out: %-inhibition at 1 µmol/L, ROCK1
Give inhibition at 1 µM for every item shown.
Supply the numeric figure in %, leaving out any unit text.

Query inhibition at 1 µM for `COc1ccc(CN2C3CC2CN(c2ccc(-c4cc(OCC(C)(C)O)cn5ncc(C#N)c45)cn2)C3)cn1` 3.51

Query inhibition at 1 µM for `COc1cc2ncnc(Nc3ccc(F)c(Cl)c3)c2cc1NC(=O)/C=C/CN1CCCCC1` -2.68

Query inhibition at 1 µM for `O=C(Nc1cnn2ccc(N3CCC[C@@H]3c3cc(F)ccc3F)nc12)N1CC[C@H](O)C1` -5.36

Query inhibition at 1 µM for `CCN1C(=O)N(c2c(F)c(OC)cc(OC)c2F)Cc2cnc3[nH]c(CN4CCOCC4)cc3c21` -2.6

====

Give inhibition at 1 µM for every item shown.
Biological target: panel of 255 wild-type kinases (Homo sapiens)
Sequence (Q9UF33 23-1036): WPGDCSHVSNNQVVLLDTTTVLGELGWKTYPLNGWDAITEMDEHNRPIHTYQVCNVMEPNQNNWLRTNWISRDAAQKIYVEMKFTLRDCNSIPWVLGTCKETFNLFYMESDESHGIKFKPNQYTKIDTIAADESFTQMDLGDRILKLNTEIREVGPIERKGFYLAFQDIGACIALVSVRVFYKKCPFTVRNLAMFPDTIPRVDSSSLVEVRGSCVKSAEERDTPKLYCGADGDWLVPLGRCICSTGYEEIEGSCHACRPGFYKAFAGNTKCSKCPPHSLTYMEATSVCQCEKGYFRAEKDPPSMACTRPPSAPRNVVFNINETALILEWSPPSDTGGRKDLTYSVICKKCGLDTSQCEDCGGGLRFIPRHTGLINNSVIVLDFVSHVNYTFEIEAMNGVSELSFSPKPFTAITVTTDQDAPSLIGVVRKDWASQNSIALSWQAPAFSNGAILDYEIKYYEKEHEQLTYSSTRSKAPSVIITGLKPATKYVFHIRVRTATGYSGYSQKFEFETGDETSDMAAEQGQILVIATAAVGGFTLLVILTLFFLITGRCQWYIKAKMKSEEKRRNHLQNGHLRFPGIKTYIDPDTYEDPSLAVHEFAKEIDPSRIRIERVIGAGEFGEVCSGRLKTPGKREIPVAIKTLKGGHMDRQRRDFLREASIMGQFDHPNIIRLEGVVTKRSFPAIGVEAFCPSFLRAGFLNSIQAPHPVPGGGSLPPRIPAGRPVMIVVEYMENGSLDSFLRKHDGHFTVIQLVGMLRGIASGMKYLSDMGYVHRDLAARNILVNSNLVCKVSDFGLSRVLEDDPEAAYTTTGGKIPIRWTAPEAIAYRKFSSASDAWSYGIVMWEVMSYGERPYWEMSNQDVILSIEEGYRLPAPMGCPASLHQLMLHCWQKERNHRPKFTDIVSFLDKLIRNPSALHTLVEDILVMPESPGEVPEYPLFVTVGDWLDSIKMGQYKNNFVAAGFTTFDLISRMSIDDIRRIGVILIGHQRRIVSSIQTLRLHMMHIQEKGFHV
Assay: Kinase panel profiling at 1 µmol/L (MSA or IMAP), percentage inhibition
Assay type: biochemical
Details: kinase EPHA6; 1 µmol/L single concentration; read-out: %-inhibition at 1 µmol/L, EPHA6

Query inhibition at 1 µM for Cn1cc(-c2cc3c(N4CCN(c5ncc([C@@](C)(N)c6ccc(F)cc6)cn5)CC4)ncnn3c2)cn1 [avapritinib] 7%

Query inhibition at 1 µM for Cn1cnc2c(F)c(Nc3ccc(Br)cc3Cl)c(C(=O)NOCCO)cc21 [selumetinib] 1%

Query inhibition at 1 µM for C=CC(=O)N1CCC([C@@H]2CCNc3c(C(N)=O)c(-c4ccc(Oc5ccccc5)cc4)nn32)CC1 [zanubrutinib] 14%

Query inhibition at 1 µM for COc1cc2ncnc(Nc3ccc(F)c(Cl)c3)c2cc1NC(=O)/C=C/CN1CCCCC1 [dacomitinib] 98%

Query inhibition at 1 µM for FC(F)(F)c1ccc(CNc2ccc(Cc3c[nH]c4ncc(Cl)cc34)cn2)cn1 [pexidartinib] 18%

Query inhibition at 1 µM for CCN1C(=O)N(c2c(F)c(OC)cc(OC)c2F)Cc2cnc3[nH]c(CN4CCOCC4)cc3c21 [pemigatinib] -3%

Query inhibition at 1 µM for O=C(Nc1cnn2ccc(N3CCC[C@@H]3c3cc(F)ccc3F)nc12)N1CC[C@H](O)C1 [larotrectinib] -0.585%

Query inhibition at 1 µM for Cc1nc(NC(=O)N2CCC[C@H]2C(N)=O)sc1-c1ccnc(C(C)(C)C(F)(F)F)c1 [alpelisib] 5.35%

Query inhibition at 1 µM for C[C@H](Nc1ncnc2nc[nH]c12)c1cc2cccc(Cl)c2c(=O)n1-c1ccccc1 [duvelisib] 5.71%

Query inhibition at 1 µM for C[C@H]1Oc2cc(cnc2N)-c2c(nn(C)c2C#N)CN(C)C(=O)c2ccc(F)cc21 [lorlatinib] 76%

Query inhibition at 1 µM for COc1ccc(CN2C3CC2CN(c2ccc(-c4cc(OCC(C)(C)O)cn5ncc(C#N)c45)cn2)C3)cn1 [selpercatinib] 98%

Query inhibition at 1 µM for CCn1c(=O)c(-c2cc(NC(=O)Nc3ccccc3)c(F)cc2Br)cc2cnc(NC)cc21 [ripretinib] 99%

Query inhibition at 1 µM for Cn1cnc2c(F)c(Nc3ccc(Br)cc3F)c(C(=O)NOCCO)cc21 [binimetinib] 2.34%

Query inhibition at 1 µM for COC(=O)N[C@@H](C)CNc1nccc(-c2cn(C(C)C)nc2-c2cc(Cl)cc(NS(C)(=O)=O)c2F)n1 [encorafenib] 17%

Query inhibition at 1 µM for Cc1cc(Nc2ncnc3ccc(NC4=NC(C)(C)CO4)cc23)ccc1Oc1ccn2ncnc2c1 [tucatinib] 2.19%
